Exercise: state measured inhibition for each of the compounds provided.
ASSAYED SYSTEM: Serine/threonine-protein kinase RAF and Dual specificity mitogen-activated protein kinase kinase 1 (Raf/MEK) (Homo sapiens, UniProt P04049+Q02750)
Sequence (P04049 whole entry, looked up): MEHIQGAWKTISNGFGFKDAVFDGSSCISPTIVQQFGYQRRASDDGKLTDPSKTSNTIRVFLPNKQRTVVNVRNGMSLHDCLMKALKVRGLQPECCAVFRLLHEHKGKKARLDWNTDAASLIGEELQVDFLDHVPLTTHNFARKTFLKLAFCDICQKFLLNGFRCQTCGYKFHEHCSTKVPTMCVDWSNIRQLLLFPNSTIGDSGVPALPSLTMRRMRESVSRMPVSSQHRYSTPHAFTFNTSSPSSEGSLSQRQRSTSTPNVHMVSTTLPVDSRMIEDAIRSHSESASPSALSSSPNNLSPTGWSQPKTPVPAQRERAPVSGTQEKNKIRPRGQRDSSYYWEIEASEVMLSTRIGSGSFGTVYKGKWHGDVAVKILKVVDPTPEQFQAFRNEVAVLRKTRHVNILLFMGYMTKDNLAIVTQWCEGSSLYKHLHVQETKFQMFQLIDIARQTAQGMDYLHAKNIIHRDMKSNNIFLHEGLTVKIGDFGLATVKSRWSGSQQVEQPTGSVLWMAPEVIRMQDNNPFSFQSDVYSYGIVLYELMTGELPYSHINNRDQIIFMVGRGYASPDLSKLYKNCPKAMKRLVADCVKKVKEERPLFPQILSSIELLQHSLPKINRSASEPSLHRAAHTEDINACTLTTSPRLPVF
Sequence (Q02750 whole entry, looked up): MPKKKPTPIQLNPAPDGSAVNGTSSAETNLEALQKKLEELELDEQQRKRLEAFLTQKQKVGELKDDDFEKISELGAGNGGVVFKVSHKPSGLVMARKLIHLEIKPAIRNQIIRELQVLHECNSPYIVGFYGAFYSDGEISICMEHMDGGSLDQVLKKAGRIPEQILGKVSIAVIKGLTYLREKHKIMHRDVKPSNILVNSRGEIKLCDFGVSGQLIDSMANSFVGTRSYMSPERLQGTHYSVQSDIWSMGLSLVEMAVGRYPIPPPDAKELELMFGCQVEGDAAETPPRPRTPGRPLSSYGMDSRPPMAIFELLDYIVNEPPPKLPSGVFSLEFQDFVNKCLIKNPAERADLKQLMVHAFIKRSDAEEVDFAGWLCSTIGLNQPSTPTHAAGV
PROTOCOL DESCRIPTION: Inhibitory activity in EGF-stimulated Elk1-luciferase reporter assay in HeLa cells at 20 uM
Format: functional, cell-based
Return type: number; implicit unit %.

In: Please report the measured inhibition for `COc1cc(CN(CCc2ccccn2)C(=O)COCc2ccccc2)ccc1OCc1ccccc1`
Out: 43

In: Supply reported inhibition belonging to this compound: `COc1ccc(CN(CCc2ccccn2)C(=O)c2ccccc2Cl)cc1OCc1ccccc1`
Out: 32

In: Supply recorded inhibition for `COc1cc(CN(CCc2ccccn2)C(=O)CNCc2ccccc2)ccc1OCc1ccccc1` here.
Out: 6

In: Tell us which inhibition value is on record for `COc1ccc(CN(CCc2ccccn2)C(=O)c2ccccc2Cl)cc1OC`
Out: 24

In: Name the recorded inhibition of the compound listed here: COc1cc(CN(CCc2ccccn2)C(=O)C(N)Cc2ccccc2)ccc1OCc1ccccc1 (stereo not given)
Out: 14

---

Hi there, I'd appreciate the recorded GI50 for every entry that follows.
System: HCT-116
PROTOCOL DESCRIPTION: Ability of compound to inhibit anchorage independent colony formation (soft agar growth assay) in HCT116 cells
Format: functional
CONDITIONS USED: Homo sapiens
Response body: numeric value in µM, unit text excluded.

In: Tell me GI50 reported for COc1cc(CN(CCc2ccccn2)C(=O)CCC(C)c2ccccc2)ccc1OCc1ccccc1 (stereo not given)
Out: 23.5

In: Identify measured GI50 corresponding to `COc1cc(CN(CCc2cccc(O)n2)C(=O)CCCCc2ccccc2)ccc1OCc1ccccc1`
Out: 32.3

In: Output measured GI50 for this item: `COc1cc(C(=O)N(CCc2ccccn2)Cc2ccccc2Cl)ccc1OCc1ccccc1`
Out: 18.8

In: Tell us which GI50 value is on record for COc1cc(CN(CCC2CCCCN2)C(=O)CCCc2ccccc2)ccc1OCc1ccccc1 (stereo not given)
Out: 3.5

In: Report GI50 for `COc1cc(CN(CCc2ccccn2)C(=O)CCCCc2ccccc2)ccc1OCc1ccccc1`
Out: 20.6

In: # return recorded GI50 for entry `O=C(CCCCc1ccccc1)N(CCc1ccccn1)Cc1ccc(OCc2ccccc2)c(OCCO)c1`
Out: 14.4

In: Provide measured GI50 value, entry: `COc1cc(CN(CCc2ccccn2)C(=O)c2ccccc2Cl)ccc1OCc1ccccc1`
Out: 22.1

In: Check the records and state GI50 for `N#CC(=C(/N)Sc1ccccc1N)/C(C#N)=C(\N)Sc1ccccc1N`
Out: 19.4

In: Read off the recorded GI50 for COc1cc(CN(CCc2ccccn2)C(=O)C2CC2c2ccccc2)ccc1OCc1ccccc1 (trans isomer)
Out: 25.9

In: Look up and report measured GI50 for this entry: CNC(=O)c1cc(Oc2ccc(NC(=O)Nc3ccc(Cl)c(C(F)(F)F)c3)cc2)ccn1 [SORAFENIB]
Out: 6.6

---

Please respond with reported IC50 for every item in the list.
ASSAYED SYSTEM: Serine/threonine-protein kinase RAF and Dual specificity mitogen-activated protein kinase kinase 1 (Raf/MEK) (Homo sapiens, UniProt P04049+Q02750)
PROTOCOL DESCRIPTION: Inhibition of EGF-stimulated Elk1-luciferase reporter assay in HeLa cells
Type: functional, cell-based
Numbers only here, please. The scale is µM.

In: Return IC50 (reported value) for this compound: `COc1cc(CN(CCc2cccc(O)n2)C(=O)CCCCc2ccccc2)ccc1OCc1ccccc1`
Out: 12.3

In: Item `COc1cc(C(=O)N(CCc2ccccn2)Cc2ccccc2Cl)ccc1OCc1ccccc1` : provide IC50
Out: 16.2

In: Please list IC50 recorded for the compound COc1cc(CN(CCc2ccccn2)C(=O)C2CC2c2ccccc2)ccc1OCc1ccccc1 (trans isomer)
Out: 10.5

In: Return IC50 (reported value) for this compound: `O=C(CCCCc1ccccc1)N(CCc1ccccn1)Cc1ccc(OCc2ccccc2)c(O)c1`
Out: 19.4

In: Look up and report measured IC50 for this entry: `COc1cc(CN(Cc2ccccc2Cl)C(=O)Cc2ccccn2)ccc1OCc1ccccc1`
Out: 25.3

In: Give a short answer stating reported IC50 for COc1cc(CN(CCc2ccccn2)C(=O)CCC(C)c2ccccc2)ccc1OCc1ccccc1 (centres undefined) .
Out: 11.2

In: Identify the reported IC50 for the following entry. `COc1cc(CN(CCc2ccccn2)C(=O)CCCCc2ccccc2)ccc1OCc1ccccc1`
Out: 9

In: Given `COc1cc(CN(CCc2ccccn2)C(=O)c2ccccc2Cl)ccc1OCc1ccccc1` , respond with its IC50.
Out: 20.6

In: Give reported IC50 value for `O=C(CCCCc1ccccc1)N(CCc1ccccn1)Cc1ccc(OCc2ccccc2)c(OCCO)c1`
Out: 14.2
